Sourced from PubChem BioAssay AID248

# Test system: L1210 leukemia ip in BDF1 mice, survival T/C
# runDescription: NCI In Vivo Anticancer Drug Screen. Data for tumor model L1210 Leukemia (intraperitoneal) in B6D2F1 (BDF1) mice
# details: endpoint: mean survival time; dose: 100.0 mg/kg/injection; schedule: Q04DX003 (ip); vehicle: saline; higher = longer survival
# Experimental: The antitumor activity of compounds was measured in mice bearing transplantable tumors. Survival or tumor size were measured and the results are expressed as the measurement made in the treated group (T) divided by the measurement made in the vehicle treated control group (C). The tumor model used in this assay is L1210 Leukemia (intraperitoneal) in B6D2F1 (BDF1) mice
Inconclusive results and toxic doses are left out.
Would you mind telling me the reported T/C of each entry?

>  <smilesString>
COc1ccc(C(=O)NN2C(N)=NC(N)=NC2(C)C)cc1

>  <recordedValue>
94 % of control

$$$$
>  <smilesString>
C/C(=C(/CCO)SCC/C(=N/O)c1ccccc1)N(C=O)Cc1cnc(C)nc1N

>  <recordedValue>
104 % of control

$$$$

Here's the next entry for you.
Problem: I have this compound here, COc1cc(C2=C3C(=O)OC[C@@H]3Cc3cc4c(cc32)OCO4)cc(OC)c1OC , and I need its recorded T/C.
Solution: 105 % of control
